assayed-system: dopamine transporter (DAT) expressed in LLC-PK1 cells (Rattus norvegicus, UniProt P23977)
Construct: host or cells: LLC-PK1 (LLC-DAT)
Sequence (P23977 whole entry): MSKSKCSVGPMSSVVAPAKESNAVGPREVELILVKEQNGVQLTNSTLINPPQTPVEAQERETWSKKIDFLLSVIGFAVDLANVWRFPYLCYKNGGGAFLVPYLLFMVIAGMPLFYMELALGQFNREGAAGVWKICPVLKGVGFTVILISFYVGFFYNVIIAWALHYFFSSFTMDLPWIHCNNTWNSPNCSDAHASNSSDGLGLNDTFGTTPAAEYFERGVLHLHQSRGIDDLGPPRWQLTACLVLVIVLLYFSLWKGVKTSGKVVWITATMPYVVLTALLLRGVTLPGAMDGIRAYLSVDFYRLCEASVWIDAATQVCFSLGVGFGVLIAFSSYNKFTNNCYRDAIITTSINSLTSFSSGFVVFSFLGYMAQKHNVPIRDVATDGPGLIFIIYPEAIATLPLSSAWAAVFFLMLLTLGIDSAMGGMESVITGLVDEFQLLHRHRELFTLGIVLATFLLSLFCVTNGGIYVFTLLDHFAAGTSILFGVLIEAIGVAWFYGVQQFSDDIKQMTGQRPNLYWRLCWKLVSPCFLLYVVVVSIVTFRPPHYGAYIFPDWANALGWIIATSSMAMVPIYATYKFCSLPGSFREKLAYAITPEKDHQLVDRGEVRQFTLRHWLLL
assay-text: [125I]IPT competition binding, LLC-DAT membrane homogenates
experimental-endpoint: Ki (µM)
Write the number in µM without appending the unit.

Query string: For COCc1cc(I)ccc1Sc1ccccc1CN(C)C , what is its reported Ki?
Result string: 11

---

assayed-system: SERT (Rattus norvegicus)
Sequence (P31652 whole entry): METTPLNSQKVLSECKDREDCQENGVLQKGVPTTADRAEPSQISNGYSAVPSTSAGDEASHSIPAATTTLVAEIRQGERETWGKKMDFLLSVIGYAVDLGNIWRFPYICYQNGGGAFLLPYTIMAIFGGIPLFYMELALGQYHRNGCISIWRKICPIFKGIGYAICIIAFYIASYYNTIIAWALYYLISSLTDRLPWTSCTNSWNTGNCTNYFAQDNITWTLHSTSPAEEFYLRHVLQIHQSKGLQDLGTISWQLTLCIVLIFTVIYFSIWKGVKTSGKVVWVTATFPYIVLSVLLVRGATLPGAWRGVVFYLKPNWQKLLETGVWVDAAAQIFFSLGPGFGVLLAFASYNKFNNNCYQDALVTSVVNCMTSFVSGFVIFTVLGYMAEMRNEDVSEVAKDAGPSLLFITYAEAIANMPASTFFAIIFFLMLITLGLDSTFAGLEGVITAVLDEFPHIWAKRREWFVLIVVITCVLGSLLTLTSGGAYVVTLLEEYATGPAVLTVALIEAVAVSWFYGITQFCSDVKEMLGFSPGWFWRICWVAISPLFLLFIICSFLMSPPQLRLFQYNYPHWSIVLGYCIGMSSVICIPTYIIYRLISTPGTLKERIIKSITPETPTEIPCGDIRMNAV
assay-text: [125I]IDAM saturation binding to rat frontal cortical membrane homogenates
Parameters: The frontal cortex of rat brain were dissected and homogenized in 30 volumes of buffer; from tissue; host or cells: rat frontal cortex membrane homogenates (male Sprague-Dawley rats, control and PCA-lesioned)
particulars: PCA-lesioned rats, frontal cortical membranes
Method: The homogenates were centrifuged at 20,000 g for 20 min. The resulting pellets were then re-suspended and recentrifuged. The final pellets were suspended in the same buffer and used for in vitro binding assays. […] Various inhibitors were serially diluted with the buffer containing 0.1% BSA to overcome the stickiness and loss due to dilution. […] The filters were then washed three times with 3 ml of ice-cold […] Tris buffer and counted in a gamma counter (Packard 5000) with 70% efficiency. […]
experimental-endpoint: Kd (nM)
Write the number in nM without appending the unit.

Query string: For CN(C)Cc1ccccc1Sc1ccc([125I])cc1CO [[^125I]IDAM] , what is its reported Kd?
Result string: 0.05

Entry source: patent US6921840B1
